# SUBJECT_OF_TEST: UniProt Q8NBP7
# ASSAY_REMARKS: BODIPY-LDL uptake assay in HepG2 cells
# Type: cell-based
# CONDITIONS: 1 μM test compound, 5 μg/ml PCSK9, BODIPY-LDL
Rule: % increase in LDL Uptake below 20% gives MET, anything at or above gives NOT MET.

Exam item: Field: below-cutoff. Rule: recorded % increase in LDL Uptake strictly less than 20%. Subject: O=C(c1cccc(C2(O)COC2)c1)N1CCCC(c2ccc(C(F)(F)F)cc2)C1 (centres unmarked) [Example 48]
Marked response: MET

Exam item: Repeat for the following compound: O=C(Nc1ccc(C2(O)COC2)cc1)N1CCC(c2ccc(C(F)(F)F)cc2)CC1 [Example 4]
Marked response: NOT MET

Exam item: Check CN1CCN(c2cc(NC(=O)C3CCN(c4ccc(C(F)(F)F)cc4)CC3)cc(C3(O)COC3)c2)CC1 [Example 201] too.
Marked response: MET

Exam item: For O=C(c1ccc(C2(O)CSC2)cc1)N1CCC(c2ccc(C(F)(F)F)cc2)CC1 [Example 145] then?
Marked response: MET

Exam item: Try O=C(c1ccc(C2(OCCO)COC2)cc1)N1CCC(c2ccc(C(F)(F)F)cc2)CC1 [Example 188] next.
Marked response: MET

Exam item: Ok, now CCOC1(c2cccc(C(=O)N3CC4CN(c5ccc(C(F)(F)F)cc5)CC4C3)c2)COC1 (centres unmarked) [Example 178]
Marked response: MET

Exam item: For COC1(c2cccc(NC(=O)N3CC4CN(c5ccc(C(F)(F)F)cc5)CC4C3)c2)COC1 (centres unmarked) [Example 183] then?
Marked response: NOT MET

Exam item: What do you get for O=C(c1ccc(C2(O)CNC2)cc1)N1CCC(c2ccc(C(F)(F)F)cc2)CC1 [Example 155] ?
Marked response: MET

Exam item: # iterate: O=C(c1cncc(C2(O)COC2)c1)N1CCC(c2ccc(C(F)(F)F)cc2)CC1 [Example 49]
Marked response: MET

Exam item: Please give the result for COC1(c2ccc(C(=O)N3CCC(c4ccc(C(F)(F)F)cc4)CC3)cc2)COC1 [Example 2] too.
Marked response: MET

Exam item: What do we get for O=C(c1ccc(C2(O)COC2)cc1)N1CCC(O)(c2ccc(C(F)(F)F)cc2)CC1 [Example 86] ?
Marked response: MET

Exam item: Subsequent entry: O=C(O)COC1(c2ccc(C(=O)N3CC4CN(c5ccc(C(F)(F)F)cc5)CC4C3)cc2)COC1 (centres unmarked) [Example 13]
Marked response: NOT MET

Exam item: Try COC1(c2cccc(C(=O)N3CCCC(c4ccc(C(F)(F)F)cc4)C3)c2)COC1 (centres unmarked) [Example 51] next.
Marked response: MET

Exam item: Repeat for the following compound: Cc1ccc(C2CCN(C(=O)c3ccc(C4(O)COC4)cc3)CC2)cc1Cl [Example 29]
Marked response: MET

Exam item: Again, but for O=C(c1ccc(C2(O)CS(=O)(=O)C2)cc1)N1CC2CN(c3ccc(C(F)(F)F)cc3)CC2C1 (centres unmarked) [Example 61]
Marked response: MET

Exam item: Entry OC1(c2ccc(-c3nc(-c4ccc(C(F)(F)F)c(F)c4)no3)cc2)COC1 [Example 16] please
Marked response: NOT MET

Exam item: Then this compound: O=C(c1ccc(C2(O)COC2)cc1)N1CC2CN(c3ccc(C(F)(F)F)nc3)CC2C1 (centres unmarked) [Example 215]
Marked response: MET

Exam item: Try this compound next: COC1(c2ccc(C(=O)N3CCN(c4ccc(C(F)(F)F)cn4)CC3)cc2)COC1 [Example 218]
Marked response: MET

Exam item: Next compound: COC1(c2cccc(C(=O)N3CCN(c4ccc(C(F)(F)F)cn4)CC3)c2)COC1 [Example 221]
Marked response: MET

Exam item: Same lookup for CC(C)COC1(c2ccc(C(=O)N3CC4CN(c5ccc(C(F)(F)F)cc5)CC4C3)cc2)COC1 (centres unmarked) [Example 135] , please.
Marked response: MET

Exam item: Another compound to check: O=C(c1cccc(C2(O)COC2)c1)N1CC2CN(c3ccc(C(F)(F)F)cc3)CC2C1 (centres unmarked) [Example 55]
Marked response: NOT MET

Exam item: Proceed to O=S(=O)(c1ccc(C2(O)COC2)cc1)N1CCN(c2ccc(C(F)(F)F)cc2)CC1 [Example 7]
Marked response: NOT MET

###

# SUBJECT_OF_TEST: PCSK9 (Homo sapiens)
# ASSAY_REMARKS: BODIPY-LDL uptake assay in HepG2 cells
# Assay type: cell-based
# CONDITIONS: 1 μM test compound, 5 μg/ml PCSK9, BODIPY-LDL
# if measured % increase in LDL Uptake < 3%: rule met  # else: rule not met

Exam item: I wonder whether O=C(c1ccc(C2(OCCO)COC2)cc1)N1CC2CN(c3ccc(C(F)(F)F)cc3)CC2C1 (stereo not shown) [Example 12] has % increase in LDL Uptake below 3%. Can you tell?
Marked response: rule not met

Exam item: Next: CC(=O)OC1(c2ccc(C(=O)N3CCC(c4ccc(C(F)(F)F)cc4)CC3)cc2)COC1 [Example 36]
Marked response: rule met

Exam item: Entry O=C(c1ccc(C2(O)COC2)cc1)N1CCN(c2ccc(C(F)(F)F)nc2)CC1 [Example 217] please
Marked response: rule met

Exam item: # repeat for COC1(c2ccc(C(=O)N3CC4CN(c5ccc(C(F)(F)F)cn5)CC4C3)cc2)COC1 (stereo not shown) [Example 209]
Marked response: rule not met

Exam item: Let us now turn to COC1(c2ccc(C(=O)N3CC4CN(c5ccc(C(F)(F)F)cc5)CC4C3)cc2)CSC1 (stereo not shown) [Example 149]
Marked response: rule met

Exam item: Moving on to COC1(c2ccc(C(=O)N3CCC(c4ccc(C(F)(F)F)cc4)CC3)cc2)CCNC1 (stereo not shown) [Example 153]
Marked response: rule met

Exam item: Do the same for O=C(c1ccc(C2(O)CCNCC2)cc1)N1CCC(c2ccc(C(F)(F)F)cc2)CC1 [Example 141] please
Marked response: rule met

Exam item: Try this compound next: O=C(c1cccc(C2(O)COC2)c1)N1CCC(c2ccc(C(F)(F)F)c(F)c2)CC1 [Example 121]
Marked response: rule met

Exam item: Another compound to look at: O=C(c1ccc(C2(O)COC2)cc1)N1CC2CN(c3ccc(C(F)(F)F)cc3)CC2C1 (stereo not shown) [Example 11]
Marked response: rule not met

Exam item: Same question for COC1(c2ccc(NC(=O)C3CCN(c4ccc(C(F)(F)F)cc4)CC3)cc2)COC1 [Example 60] please.
Marked response: rule not met

Exam item: Also COc1ccc(C2CCN(C(=O)c3ccc(C4(O)COC4)cc3)CC2)cc1Cl [Example 26] , if possible.
Marked response: rule not met

Exam item: Try this compound next: COCCOC1(c2ccc(C(=O)N3CC4CN(c5ccc(C(F)(F)F)cc5)CC4C3)cc2)COC1 (stereo not shown) [Example 137]
Marked response: rule met

Exam item: Please answer likewise for CCOC1(c2ccc(C(=O)N3CC4CN(c5ccc(C(F)(F)F)cc5)CC4C3)cc2)CSC1 (stereo not shown) [Example 150]
Marked response: rule met

Exam item: Now give it for O=C(c1ccc(C2(O)COC2)cc1)N1CCC(c2cc(F)cc(C(F)(F)F)c2)CC1 [Example 14] too.
Marked response: rule met

Exam item: Another compound to check: O=C(c1ccc(C2(O)COC2)cc1)N1CC2CC(c3ccc(C(F)(F)F)cc3)CC2C1 (stereo not shown) [Example 10]
Marked response: rule met

###

I'd be grateful if you could share measured % increase in LDL Uptake for these entries.
# SUBJECT_OF_TEST: UniProtKB Q8NBP7
# ASSAY_REMARKS: BODIPY-LDL uptake assay in HepG2 cells
# Type: cell-based
# CONDITIONS: 1 μM test compound, 5 μg/ml PCSK9, BODIPY-LDL
Numbers only; they are read as %.

Exam item: Notebook entry, UniProtKB Q8NBP7 assay: % increase in LDL Uptake of COC1(c2ccc(C3(O)CCN(c4ccc(C(F)(F)F)cc4)CC3)cc2)COC1 = ?
Marked response: 0

Exam item: Input CCOC1(c2ccc(C(=O)N3CC4CN(c5ccc(C(F)(F)F)cc5)CC4C3)cc2)COC1 (stereo not shown)
Marked response: 25

Exam item: Same question, COC1(c2ccc(C(=O)N3CC4CN(c5ccc(C(F)(F)F)cc5)CC4C3)cc2)COC1 (stereo not shown) this time
Marked response: 6

Exam item: How about O=C(c1ccc(C2(O)COC2)cc1)N1CCC(c2ccccc2)CC1 ?
Marked response: 0

###

# SUBJECT_OF_TEST: PCSK9 (Homo sapiens, UniProt Q8NBP7)
# Sequence (Q8NBP7 153-692): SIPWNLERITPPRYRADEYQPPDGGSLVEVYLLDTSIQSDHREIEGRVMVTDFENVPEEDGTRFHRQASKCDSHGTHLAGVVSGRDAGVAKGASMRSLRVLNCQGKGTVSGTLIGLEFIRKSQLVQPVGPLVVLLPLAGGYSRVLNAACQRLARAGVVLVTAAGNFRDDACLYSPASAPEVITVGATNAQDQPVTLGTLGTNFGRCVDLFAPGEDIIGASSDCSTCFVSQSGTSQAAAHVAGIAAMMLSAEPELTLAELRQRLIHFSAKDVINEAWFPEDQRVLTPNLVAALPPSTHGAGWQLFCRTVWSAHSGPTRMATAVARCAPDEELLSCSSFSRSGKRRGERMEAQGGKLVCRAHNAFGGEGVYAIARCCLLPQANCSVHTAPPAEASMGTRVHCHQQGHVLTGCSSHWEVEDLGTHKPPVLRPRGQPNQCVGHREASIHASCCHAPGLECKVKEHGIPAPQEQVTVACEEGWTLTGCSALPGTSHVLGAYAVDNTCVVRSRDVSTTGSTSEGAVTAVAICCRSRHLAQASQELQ
# ASSAY_REMARKS: BODIPY-LDL uptake assay in HepG2 cells
# Assay type: cell-based
# CONDITIONS: 10 μM test compound, 5 μg/ml PCSK9, BODIPY-LDL
Rule: % increase in LDL Uptake below 30% gives Criterion met. Equal to or above 30% gives Criterion not met.

Exam item: A record lists COC1(c2ccc(C(=O)N3CCN(c4ccc(C(F)(F)F)cc4)CC3)cc2)COC1 . Is its % increase in LDL Uptake below 30%?
Marked response: Criterion not met

Exam item: Next compound: O=C(c1cccc(C2(O)COC2)c1)N1CC2CN(c3ccc(C(F)(F)F)cn3)CC2C1 (stereo not shown)
Marked response: Criterion not met

Exam item: Moving on to COC1(c2ccc(C(=O)N3CCC(c4ccc(C(F)(F)F)cc4)CC3)cc2)COC1
Marked response: Criterion not met

Exam item: Another compound to look at: COc1ccc(C2CCN(C(=O)c3ccc(C4(O)COC4)cc3)CC2)cc1
Marked response: Criterion met

Exam item: Same question for CC#CCOC1(c2ccc(C(=O)N3CCC(c4ccc(C(F)(F)F)cc4)CC3)cc2)COC1 please.
Marked response: Criterion met

Exam item: Input O=C(O)COC1(c2ccc(C(=O)N3CC4CN(c5ccc(C(F)(F)F)cc5)CC4C3)cc2)COC1 (stereo not shown)
Marked response: Criterion not met

Exam item: Follow-up entry: CCOC1(c2ccc(C(=O)N3CCC(c4ccc(C(F)(F)F)cc4)CC3)cc2)CCN(C(=O)OC(C)(C)C)CC1
Marked response: Criterion met

Exam item: Further, for O=C(c1ccc(C2(O)COC2)cc1)N1Cc2cn(-c3ccc(C(F)(F)F)cc3)nc2C1 ?
Marked response: Criterion met

Exam item: Ok, now O=C(c1ccc(C2(O)COC2)cc1)N1CC2CC(O)(c3ccc(C(F)(F)F)cc3)CC2C1 (stereo not shown)
Marked response: Criterion not met

Exam item: Next compound: COC1(c2cccc(NC(=O)N3CC4CN(c5ccc(C(F)(F)F)cc5)CC4C3)c2)COC1 (stereo not shown)
Marked response: Criterion met

Exam item: Also need O=C(c1cccc(C2(O)COC2)c1)N1CCC(c2ccc(C(F)F)cc2)CC1 , thanks.
Marked response: Criterion met

Exam item: Proceed to O=C(c1ccc(C2(O)COC2)cc1)N1CCC(O)(c2ccc(C(F)(F)F)cc2)CC1
Marked response: Criterion not met

Exam item: Also CCOC1(c2ccc(C(=O)N3CCC(c4ccc(C(F)(F)F)cc4)CC3)cc2)CSC1 ?
Marked response: Criterion met

Exam item: Record: CC(C)COC1(c2ccc(C(=O)N3CC4CN(c5ccc(C(F)(F)F)cc5)CC4C3)cc2)COC1 (stereo not shown)
Marked response: Criterion met

Exam item: Also O=C(c1ccc(C2(O)COC2)cc1)N1CCC2(CC1)CCN(c1ccc(C(F)(F)F)cc1)CC2 ?
Marked response: Criterion met
